# tested.system: T1, TRBP2-dsRBD1 (UniProt Q15633 1-105)
# T1 sequence: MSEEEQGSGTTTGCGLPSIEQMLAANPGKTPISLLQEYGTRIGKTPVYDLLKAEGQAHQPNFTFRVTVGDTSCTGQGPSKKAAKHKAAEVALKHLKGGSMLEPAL
# method: ITC
assay.readout: pKd
The quantity pKd is defined as the negative base-10 logarithm of the molar concentration.

Qu. Retrieve pKd measured for miR-16-1-D (dsRNA) RNA 1: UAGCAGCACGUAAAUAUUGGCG RNA 2: CCAGUAUUUACGUGCUGCUGAA and print it.
Ans. 6.30
